Tested on: IGROV1 complex spheroids (HUVEC, MSC), viability % test/control
Experiment notes: Anticancer human tumor IGROV1 cell line growth inhibition [GQUAD]; active means viability on the fitted dose curve at most 10% of control; inactive means the rest;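 further: spheroids exposed to compounds for 7 days before readout; 100% = DMSO vehicle control viability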
Measurement context: second compound 10 µM; first compound 0.316 µM
# output must be one of active, inactive

Before answering, review these 2 worked examples.
compound="O=C(c1cc(Cc2n[nH]c(=O)c3ccccc23)ccc1F)N1CCN(C(=O)C2CC2)CC1 + Cc1[nH]c2ccc(F)cc2c1-c1nc2c3cccnc3c3ncccc3c2[nH]1" target_desc="IGROV1 complex spheroids (HUVEC, MSC), viability % test/control" label=active
compound="C=CC(=O)N1CCN(c2nc(=O)n(-c3c(C)ccnc3C(C)C)c3nc(-c4c(O)cccc4F)c(F)cc23)C(C)C1 (stereo not drawn) + Cc1[nH]c2ccc(F)cc2c1-c1nc2c3cccnc3c3ncccc3c2[nH]1" target_desc="IGROV1 complex spheroids (HUVEC, MSC), viability % test/control" label=active

Query compound follows.
Task item: For Cn1ncnc1[C@H]1c2n[nH]c(=O)c3cc(F)cc(c23)N[C@@H]1c1ccc(F)cc1 + CN(C)c1ccc(Nc2c3ccc(NC(=O)CCN4CCCC4)cc3nc3cc(NC(=O)CCN4CCCC4)ccc23)cc1 , what call appears in the results of this test?
Reply: inactive

###

System: IGROV1 complex spheroids (HUVEC, MSC), viability % test/control
Experiment notes: Anticancer human tumor IGROV1 cell line growth inhibition [GQUAD];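 further: spheroids exposed to compounds for 7 days before readout; 100% = DMSO vehicle control viability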
Measurement context: second compound 10 µM; first compound 0.316 µM; active compounds read low
Each entry below carries its reported viability, T/C.
Only the number, expressed in %, is required.

# annotated cases, reported viability, T/C shown
compound="CC(C)(O)C1CCC(Nc2ccc3ncc(-c4cccc(C(F)(F)F)c4)n3n2)CC1 (configuration not stated) + Cc1cnc(CNC(=O)c2c(=O)c3ccc(N4CCCN(C)CC4)nc3n3c2sc2ccccc23)cn1" experimental_endpoint="viability, T/C" endpoint_result=9.42
compound="CC(C)n1c(=O)n(C)c2cnc3cc(F)c(-c4ccc(OCCCN5CCCCC5)nc4)cc3c21 + Cc1[nH]c2ccc(F)cc2c1-c1nc2c3cccnc3c3ncccc3c2[nH]1" experimental_endpoint="viability, T/C" endpoint_result=5.89
compound="CC(=O)O[C@H]1C(=O)[C@@]2(C)[C@H]([C@H](OC(=O)c3ccccc3)[C@]3(O)C[C@H](OC(=O)[C@H](O)[C@@H](NC(=O)c4ccccc4)c4ccccc4)C(C)=C1C3(C)C)[C@]1(OC(C)=O)CO[C@@H]1C[C@@H]2O + CN(C)c1ccc(Nc2c3ccc(NC(=O)CCN4CCCC4)cc3nc3cc(NC(=O)CCN4CCCC4)ccc23)cc1" experimental_endpoint="viability, T/C" endpoint_result=5.99

Task item: GET viability, T/C where system = IGROV1 complex spheroids (HUVEC, MSC), viability % test/control and item = Nc1ccn(C2OC(CO)C(O)C2(F)F)c(=O)n1 (configuration not stated) + Cc1[nH]c2ccc(F)cc2c1-c1nc2c3cccnc3c3ncccc3c2[nH]1
Reply: 4.1

Task item: Fetch value of viability, T/C on IGROV1 complex spheroids (HUVEC, MSC), viability % test/control for CC(C)n1c(=O)n(C)c2cnc3cc(F)c(-c4ccc(OCCCN5CCCCC5)nc4)cc3c21 + CN(C)c1ccc(Nc2c3ccc(NC(=O)CCN4CCCC4)cc3nc3cc(NC(=O)CCN4CCCC4)ccc23)cc1 .
Reply: 11.4

Task item: Write down the reported viability, T/C (system: IGROV1 complex spheroids (HUVEC, MSC), viability % test/control) of Cc1[nH]c2ccccc2c1CCNCc1ccc(/C=C/C(=O)NO)cc1 + Cc1cnc(CNC(=O)c2c(=O)c3ccc(N4CCCN(C)CC4)nc3n3c2sc2ccccc23)cn1
Reply: 0.13

Task item: Give viability, T/C; test system IGROV1 complex spheroids (HUVEC, MSC), viability % test/control; compound CC1COCCN1c1cc(C2(O)CC3CCC(C2)O3)c2cnn(-c3ccn[nH]3)c2n1 (configuration not stated) + CN(C)c1ccc(Nc2c3ccc(NC(=O)CCN4CCCC4)cc3nc3cc(NC(=O)CCN4CCCC4)ccc23)cc1
Reply: 5.93

###

Test system: IGROV1 complex spheroids (HUVEC, MSC), viability % test/control
Experiment notes: Anticancer human tumor IGROV1 cell line growth inhibition [GQUAD]; active = viability on the fitted dose curve at most 10% of control; inactive = the rest;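 further: spheroids exposed to compounds for 7 days before readout; 100% = DMSO vehicle control viability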
Measurement context: second compound 1 µM; first compound 0.1 µM
Hi! Could you answer with just one of these? true (1) for active, false (0) for inactive

Some solved cases for reference:
compound="COc1cc(C2c3cc4c(cc3C(OC3OC5COC(C)OC5C(O)C3O)C3COC(=O)C23)OCO4)cc(OC)c1O (centres undefined) + CN(C)c1ccc(Nc2c3ccc(NC(=O)CCN4CCCC4)cc3nc3cc(NC(=O)CCN4CCCC4)ccc23)cc1" label="false (0)"
compound="O=C(c1cc(Cc2n[nH]c(=O)c3ccccc23)ccc1F)N1CCN(C(=O)C2CC2)CC1 + Cc1[nH]c2ccc(F)cc2c1-c1nc2c3cccnc3c3ncccc3c2[nH]1" label="true (1)"
compound="C#Cc1c(F)ccc2cc(O)cc(-c3ncc4c(N5CC6CCC(C5)N6)nc(OCC56CCCN5CC(F)C6)nc4c3F)c12 (centres undefined) + Cc1[nH]c2ccc(F)cc2c1-c1nc2c3cccnc3c3ncccc3c2[nH]1" label="true (1)"

Now let's try a different one.
Task item: Record request — test call for CC(=O)O[C@H]1C(=O)[C@@]2(C)[C@H]([C@H](OC(=O)c3ccccc3)[C@]3(O)C[C@H](OC(=O)[C@H](O)[C@@H](NC(=O)c4ccccc4)c4ccccc4)C(C)=C1C3(C)C)[C@]1(OC(C)=O)CO[C@@H]1C[C@@H]2O + Cc1cnc(CNC(=O)c2c(=O)c3ccc(N4CCCN(C)CC4)nc3n3c2sc2ccccc23)cn1
Reply: true (1)

###

Test system: IGROV1 complex spheroids (HUVEC, MSC), viability % test/control
Experiment notes: Anticancer human tumor IGROV1 cell line growth inhibition [GQUAD];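 further: spheroids exposed to compounds for 7 days before readout; 100% = DMSO vehicle control viability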
Measurement context: second compound 0.316 µM; first compound 0.316 µM; active compounds read low
Experimental endpoint: viability, T/C (%)
Expressed in %, but write only the number.

Consider the reported viability, T/C for these compounds:
compound="O=C(c1cc(Cc2n[nH]c(=O)c3ccccc23)ccc1F)N1CCN(C(=O)C2CC2)CC1 + Cc1cnc(CNC(=O)c2c(=O)c3ccc(N4CCCN(C)CC4)nc3n3c2sc2ccccc23)cn1" target_desc="IGROV1 complex spheroids (HUVEC, MSC), viability % test/control" experimental_endpoint="viability, T/C" endpoint_result=24
compound="CCc1c2c(nc3ccc(O)cc13)-c1cc3c(c(=O)n1C2)COC(=O)[C@]3(O)CC + CN(C)c1ccc(Nc2c3ccc(NC(=O)CCN4CCCC4)cc3nc3cc(NC(=O)CCN4CCCC4)ccc23)cc1" target_desc="IGROV1 complex spheroids (HUVEC, MSC), viability % test/control" experimental_endpoint="viability, T/C" endpoint_result=1.5

Task item: Entry C=CCn1c(=O)c2cnc(Nc3ccc(N4CCN(C)CC4)cc3)nc2n1-c1cccc(C(C)(C)O)n1 + Cc1cnc(CNC(=O)c2c(=O)c3ccc(N4CCCN(C)CC4)nc3n3c2sc2ccccc23)cn1 needs its viability, T/C filled in; supply it.
Reply: 4.48

Task item: # return recorded viability, T/C for input CC1COCCN1c1cc(C2(O)CC3CCC(C2)O3)c2cnn(-c3ccn[nH]3)c2n1 (stereo not given) + CN(C)c1ccc(Nc2c3ccc(NC(=O)CCN4CCCC4)cc3nc3cc(NC(=O)CCN4CCCC4)ccc23)cc1
Reply: 9.25

Task item: Note viability, T/C for the compound shown: COc1cccc2c1C(=O)c1c(O)c3c(c(O)c1C2=O)CC(O)(C(=O)CO)CC3OC1CC(N)C(O)C(C)O1 (stereo not given) + Cc1cnc(CNC(=O)c2c(=O)c3ccc(N4CCCN(C)CC4)nc3n3c2sc2ccccc23)cn1
Reply: 7.44

Task item: For the compound Cn1ncnc1[C@H]1c2n[nH]c(=O)c3cc(F)cc(c23)N[C@@H]1c1ccc(F)cc1 + Cc1cnc(CNC(=O)c2c(=O)c3ccc(N4CCCN(C)CC4)nc3n3c2sc2ccccc23)cn1 , report viability, T/C.
Reply: 12.4

Task item: Give recorded viability, T/C. CC(=O)O[C@H]1C(=O)[C@@]2(C)[C@H]([C@H](OC(=O)c3ccccc3)[C@]3(O)C[C@H](OC(=O)[C@H](O)[C@@H](NC(=O)c4ccccc4)c4ccccc4)C(C)=C1C3(C)C)[C@]1(OC(C)=O)CO[C@@H]1C[C@@H]2O + CN(C)c1ccc(Nc2c3ccc(NC(=O)CCN4CCCC4)cc3nc3cc(NC(=O)CCN4CCCC4)ccc23)cc1
Reply: 5.8

Task item: Please give measured viability, T/C of the following entry: C=CCn1c(=O)c2cnc(Nc3ccc(N4CCN(C)CC4)cc3)nc2n1-c1cccc(C(C)(C)O)n1 + Cc1[nH]c2ccc(F)cc2c1-c1nc2c3cccnc3c3ncccc3c2[nH]1
Reply: 2.19

Task item: Name the recorded viability, T/C of the compound listed here: Nc1ccn(C2OC(CO)C(O)C2(F)F)c(=O)n1 (stereo not given) + Cc1cnc(CNC(=O)c2c(=O)c3ccc(N4CCCN(C)CC4)nc3n3c2sc2ccccc23)cn1
Reply: 5.92

Task item: Look up and report measured viability, T/C for this entry: COc1ccc([C@@H](O)c2cc(-c3ncnc4cc(N5CCOCC5)ccc34)c(F)cc2Cl)nn1 + Cc1cnc(CNC(=O)c2c(=O)c3ccc(N4CCCN(C)CC4)nc3n3c2sc2ccccc23)cn1
Reply: 14.1
